- experimental target: AHR (Homo sapiens, UniProt P35869)
- Construct: U87 MG glioblastoma cells (ATCC #HTB-14) endogenously expressing AHR; endogenous in cells; host or cells: U87 MG glioblastoma cells (ATCC #HTB-14)
- Sequence (P35869 11-848): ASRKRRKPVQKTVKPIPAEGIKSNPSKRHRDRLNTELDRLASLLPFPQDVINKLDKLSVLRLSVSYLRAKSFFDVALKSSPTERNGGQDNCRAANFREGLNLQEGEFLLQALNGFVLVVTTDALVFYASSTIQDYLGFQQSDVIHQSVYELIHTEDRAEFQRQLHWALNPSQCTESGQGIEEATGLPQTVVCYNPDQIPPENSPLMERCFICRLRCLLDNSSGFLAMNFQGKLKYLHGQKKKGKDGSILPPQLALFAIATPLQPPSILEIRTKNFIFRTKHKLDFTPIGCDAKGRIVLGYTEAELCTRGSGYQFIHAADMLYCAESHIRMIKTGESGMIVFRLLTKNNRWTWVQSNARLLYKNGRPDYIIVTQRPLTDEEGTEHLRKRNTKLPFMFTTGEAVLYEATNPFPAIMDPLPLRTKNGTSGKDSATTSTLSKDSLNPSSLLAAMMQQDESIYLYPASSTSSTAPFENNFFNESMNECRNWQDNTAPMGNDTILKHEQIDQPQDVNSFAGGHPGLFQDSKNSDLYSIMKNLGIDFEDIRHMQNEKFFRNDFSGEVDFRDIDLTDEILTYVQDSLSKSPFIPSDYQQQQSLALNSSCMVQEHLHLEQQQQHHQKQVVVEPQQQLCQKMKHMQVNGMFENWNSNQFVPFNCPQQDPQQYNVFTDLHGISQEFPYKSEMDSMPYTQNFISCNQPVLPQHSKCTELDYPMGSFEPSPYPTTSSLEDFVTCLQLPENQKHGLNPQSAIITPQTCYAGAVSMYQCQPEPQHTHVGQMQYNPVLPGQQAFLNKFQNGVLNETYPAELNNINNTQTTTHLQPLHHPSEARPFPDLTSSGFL
- test protocol: In vitro assay 1: antagonism in human cell line (AHR transactivation, firefly luciferase reporter, kynurenic acid prestimulated)
- Assay type: cell-based
- test settings: AHR Antagonism Human IC50 [M]
readout: IC50 (M)

These recorded examples may help you get a feel for the data.
>  <compound>
CCC[C@@H](Nc1nc2ccccc2c2nc(-c3ccc(OC)cc3OC(F)(F)F)nn12)C(=O)NC

>  <experimental target>
AHR (Homo sapiens, UniProt P35869)

>  <measure unit>
M

>  <IC50>
5.39e-08

$$$$
>  <compound>
O=C1NCCCC[C@H]1Nc1nc2ccccc2c2nc(-c3ccc(Br)o3)nn12

>  <experimental target>
AHR (Homo sapiens, UniProt P35869)

>  <measure unit>
M

>  <IC50>
4.31e-09

$$$$
>  <compound>
COc1cccc2c1nc(N[C@@H]1CCCCNC1=O)n1nc(-c3cnn(C)c3)nc21

>  <experimental target>
AHR (Homo sapiens, UniProt P35869)

>  <measure unit>
M

>  <IC50>
2.29e-07

$$$$
>  <compound>
O=C1NCCCC[C@H]1Nc1nc2ccccc2c2nc(-c3cnccn3)nn12

>  <experimental target>
AHR (Homo sapiens, UniProt P35869)

>  <measure unit>
M

>  <IC50>
1.6e-07

$$$$
>  <compound>
Cc1nc(-c2nc3c4ccccc4nc(N[C@@H]4CCCCNC4=O)n3n2)co1

>  <experimental target>
AHR (Homo sapiens, UniProt P35869)

>  <measure unit>
M

>  <IC50>
2.44e-08

$$$$

[a] CN(C)c1cccc(-c2nc3c4ccccc4nc(N[C@@H]4CNCCNC4=O)n3n2)c1
[b] CS(=O)(=O)c1ccc(-c2nc3c4cccc(Br)c4nc(N[C@@H]4CNCCNC4=O)n3n2)cc1
Q. a or b : whose IC50 is greater? Answer format: the label of the selected item.
A. a
(a: 1.85e-07 M, b: 1.13e-08 M)
